assay: in vitro; conditions: human
The entries below come with measured CC50 at 24 h values attached.

// known answers, use as guide
molecule: O=C(O[C@@H]1Cc2c(O)cc(O)cc2O[C@@H]1c1ccc(O)c(O)c1)c1cc(O)c(O)c(O)c1 [ECG, (−)-epicatechin gallate]
measured-property: CC50 at 24 h
result: > 200 µM
//
molecule: O=c1c(O)c(-c2ccc(O)c(O)c2)oc2cc(O)cc(O)c12
measured-property: CC50 at 24 h
result: > 100 µM
//
molecule: O=c1cc(-c2ccccc2)oc2cc(O)cc(O)c12
measured-property: CC50 at 24 h
result: > 200 µM

GET /value?item= O=c1cc(-c2ccc(O)cc2)oc2cc(O)cc(O)c12 &field=CC50 at 24 h returns > 80 µM

GET /value?item= O=c1cc(-c2ccc(O)c(O)c2)oc2cc(O)cc(O)c12 &field=CC50 at 24 h returns > 80 µM

----------
system: HepG2 cells; experiment: Cellular antioxidant activity (CAA) assay: inhibition of peroxyl radical-induced DCFH oxidation; type: cell-based, human; details: Example 3, Table 7; no PBS wash
measured-property: CAA

// known answers, use as guide
molecule: O=c1c(O)c(-c2ccc(O)cc2)oc2cc(O)cc(O)c12 [Kaempferol, kaempferol]
CAA: 74.6 ± 4.8 μmol of QE/100 μmol

molecule: O=C(O[C@@H]1Cc2c(O)cc(O)cc2O[C@@H]1c1ccc(O)c(O)c1)c1cc(O)c(O)c(O)c1 [ECG, (−)-epicatechin gallate]
CAA: 62.1 ± 1.9 μmol of QE/100 μmol

molecule: O=c1c(O)c(-c2ccc(O)cc2O)oc2cc(O)cc(O)c12 [morin]
CAA: 32.1 ± 2.1 μmol of QE/100 μmol

GET /value?item= O=c1c(O)c(-c2ccccc2)oc2cc(O)cc(O)c12 [galangin] &field=CAA returns 66.3 ± 1.1 μmol of QE/100 μmol

GET /value?item= O=c1c(O)c(-c2cc(O)c(O)c(O)c2)oc2cc(O)cc(O)c12 [Myricetin, myricetin] &field=CAA returns 28.4 ± 0.9 μmol of QE/100 μmol

----------
The entries below come with measured pEC50 values attached.
system: HepG2 cells; experiment: Cellular antioxidant activity (CAA) assay: inhibition of peroxyl radical-induced DCFH oxidation; type: cell-based, human; details: Homo sapiens, HepG2, Example 1, Table 1; PBS wash; pure phytochemical compounds; mean ± SD, n=3; read-out: EC50 for inhibition of peroxyl radical-induced DCFH oxidation
pEC50: −log10 of the molar value.

// known answers, use as guide
molecule: O=C(CCc1ccc(O)cc1)c1c(O)cc(O)cc1O [Phloretin, phloretin]
pEC50: < 4.60
//
molecule: COc1cc(/C=C/C(=O)O)ccc1O [Ferulic acid, ferulic acid]
pEC50: < 3.30
//
molecule: Oc1ccc(C=Cc2cc(O)cc(O)c2)cc1 [Resveratrol, resveratrol]
pEC50: < 4.40

// pEC50 (HepG2 cells) for O=C1c2c(O)cc(O)cc2O[C@H](c2ccc(O)c(O)c2)[C@H]1O [Taxifolin, taxifolin] = < 3.82

// pEC50 (HepG2 cells) for O=C1O[C@H]([C@@H](O)CO)C(O)=C1O [Ascorbic acid, ascorbic acid] = < 3.30

// pEC50 (HepG2 cells) for Oc1cc(O)c2c(c1)O[C@H](c1ccc(O)c(O)c1)[C@H](O)C2 [Epicatechin, (−)-epicatechin] = < 3.22

Hello, the source for this data is patent US20110313672A1, in case you need it.
